Assay: MTT cytotoxicity assay, Caco-2
Type: cell-based, human
Details: human, Caco-2, ratio of IC50 for HEK-293 to IC50 for Caco-2; read-out: SF (selectivity factor) Caco-2
Collected selectivity ratio values appear next to each entry.

Consider the worked cases shown below.
Fc1cc2nc(COc3ccccc3-c3nc4ccccc4s3)c(COc3ccccc3-c3nc4ccccc4s3)nc2cc1Cl: > 2
Clc1cc2nc(COc3ccccc3-c3nc4ccccc4s3)c(COc3ccccc3-c3nc4ccccc4s3)nc2cc1Cl: > 9
Fc1ccc2nc(COc3ccccc3-c3nc4ccccc4s3)c(COc3ccccc3-c3nc4ccccc4s3)nc2c1: > 2.17

// switching to the query compound
For COc1ccc2nc(COc3ccccc3-c3nc4ccccc4s3)c(COc3ccccc3-c3nc4ccccc4s3)nc2c1 , what is its reported selectivity ratio?
> 9

Data origin: paper PMC9061853
